System: P. falciparum
PROTOCOL DETAILS: microbe, parasite or virus in culture
Assay type: cell-based
ASSAY CONDITIONS: Plasmodium falciparum, 72 h, read-out: RPMI growth IC50
pIC50: −log10 of the molar value.
Outcome: met for pIC50 of at least 5; not met for anything lower.

Hello, I need to know if NS(=O)(=O)c1cc(C(=O)O)c(NCc2ccco2)cc1Cl [furosemide, reference compound] has measured pIC50 not below 5. Thanks!
not met

Please check the record CCN(Cc1ccccc1)C(=O)c1ccc2c(c1)NC(=O)c1ccccc1S2 [(31)] and state if its pIC50 is at or above 5.
met

Check the entry CCCCN(CC)C(=O)c1cc2cc3ccc(C)cc3nc2o1 [(24)] : does pIC50 equal or exceed 5?
not met

Entry O=C1CN(/N=C/c2ccc(-c3ccc([N+](=O)[O-])cc3)o2)C(=O)N1 [dantrolene, reference compound] : is its pIC50 no less than 5?
not met

Hello, I need to know if CCN(CC)CCCC(C)Nc1ccnc2cc(Cl)ccc12 (stereo not shown) [chloroquine, reference compound] has measured pIC50 not below 5. Thanks!
met

Threshold query (pIC50 >= 5) on CC1=Nc2ccc(C)cc2C1/C=C1/C(=N)N2N=C(S(=O)(=O)CC(C)C)SC2=NC1=O (stereo not shown) [Cpd 50]
not met

Could you please find out whether COc1ccc(NC(=O)c2cc3cc4ccc(C)cc4nc3o2)cc1 [(280)] has pIC50 that meets 5 or exceeds it?
not met

Check if pIC50 >= 5 (inclusive). Item: COc1ccc2cc3cc(C(=O)N(C)C4CCCCC4)oc3nc2c1 [(25)]
not met

###

STUDY TARGET: PSAC of Dd2 transfectant expressing HB3 allele for PFC0120w (clag 3.1) (Plasmodium falciparum)
Sequence (O77310 whole entry, looked up): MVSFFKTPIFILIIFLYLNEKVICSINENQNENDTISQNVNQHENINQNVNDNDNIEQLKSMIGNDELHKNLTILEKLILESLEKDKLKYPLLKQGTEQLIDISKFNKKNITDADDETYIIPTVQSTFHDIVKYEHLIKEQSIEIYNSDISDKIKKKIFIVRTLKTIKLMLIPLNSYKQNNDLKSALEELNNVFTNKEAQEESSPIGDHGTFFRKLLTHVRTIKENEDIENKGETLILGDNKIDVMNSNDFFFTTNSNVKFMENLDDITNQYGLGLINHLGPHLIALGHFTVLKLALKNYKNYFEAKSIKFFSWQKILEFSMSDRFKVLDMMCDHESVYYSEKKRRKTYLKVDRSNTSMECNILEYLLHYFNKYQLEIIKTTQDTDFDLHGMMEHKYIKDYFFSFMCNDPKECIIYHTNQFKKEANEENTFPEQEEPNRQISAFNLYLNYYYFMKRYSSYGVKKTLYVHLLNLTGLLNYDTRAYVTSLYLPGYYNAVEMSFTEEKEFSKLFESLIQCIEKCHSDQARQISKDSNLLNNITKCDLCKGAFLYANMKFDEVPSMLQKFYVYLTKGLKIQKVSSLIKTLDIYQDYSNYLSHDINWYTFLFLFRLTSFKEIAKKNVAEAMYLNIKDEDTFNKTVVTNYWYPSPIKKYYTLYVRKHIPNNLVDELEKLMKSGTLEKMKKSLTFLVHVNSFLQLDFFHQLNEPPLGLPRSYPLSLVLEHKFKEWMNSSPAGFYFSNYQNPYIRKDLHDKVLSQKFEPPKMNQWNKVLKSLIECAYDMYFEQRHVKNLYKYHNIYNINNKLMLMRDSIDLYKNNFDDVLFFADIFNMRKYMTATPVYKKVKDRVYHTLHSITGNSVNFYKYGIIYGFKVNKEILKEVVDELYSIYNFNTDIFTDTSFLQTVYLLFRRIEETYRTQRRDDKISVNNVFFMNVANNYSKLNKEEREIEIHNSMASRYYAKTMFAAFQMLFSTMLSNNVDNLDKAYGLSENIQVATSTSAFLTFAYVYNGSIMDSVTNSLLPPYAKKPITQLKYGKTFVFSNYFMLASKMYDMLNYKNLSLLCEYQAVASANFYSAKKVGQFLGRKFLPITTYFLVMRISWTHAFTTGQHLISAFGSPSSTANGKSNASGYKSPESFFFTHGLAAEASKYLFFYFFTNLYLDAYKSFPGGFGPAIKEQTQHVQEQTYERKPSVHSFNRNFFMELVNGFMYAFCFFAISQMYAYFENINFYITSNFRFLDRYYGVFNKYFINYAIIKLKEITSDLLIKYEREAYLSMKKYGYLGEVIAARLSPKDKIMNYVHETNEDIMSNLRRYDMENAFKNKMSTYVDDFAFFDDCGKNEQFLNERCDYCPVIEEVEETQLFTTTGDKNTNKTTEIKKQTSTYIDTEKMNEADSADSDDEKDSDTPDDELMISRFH
PROPERTY NAME: pIC50
The value called pIC50 is obtained by taking minus log10 of the concentration in mol/L.

Dear colleague, I am looking for the recorded pIC50 of the following molecule: CCn1cc(C2=NOC(C(=O)Nc3c(C)n(C)n(-c4ccccc4)c3=O)C2)c(C)n1 (stereo not shown)
6.85
